Biological target: HLA-A*03:01 (Homo sapiens)
Assay: MHC binding assay (UV-ligand exchange, β2m ELISA)
Settings: binding to HLA-A*03:01, UV-ligand exchange, β2m ELISA
Property: Peptide exchange (MHC class I binding score, peptide exchange yield)

The examples below pair each entry with its known result.
[[record]]
substance = "9 (HVLYPVPLESY; listed as Homo sapiens) [compound 9]"
recorded_measurement = "+++ (>50 = +++)"

[[record]]
substance = "2 (KVMPKQTWK; listed as Homo sapiens) [compound 2]"
recorded_measurement = "+++ (>50 = +++)"

[[record]]
substance = "34 (AIGTPLIGK; listed as Homo sapiens) [compound 34]"
recorded_measurement = "+++ (>50 = +++)"

[[record]]
substance = "70 (VTAVASLLK; listed as Homo sapiens) [compound 70]"
recorded_measurement = "++++ (>75% = ++++)"

[[record]]
substance = "93 (SVEGLSRRLK; listed as Homo sapiens) [compound 93]"
recorded_measurement = "+++ (>50 = +++)"

[[record]]
substance = "146 (TLLSYELAFK; listed as Homo sapiens) [compound 146]"
recorded_measurement = "++++ (>75% = ++++)"

[[record]]
substance = "91 (IMKRQVKCITK; listed as Homo sapiens) [compound 91]"
recorded_measurement = "+ (>10% = +)"

[[record]]
substance = "96 (RAVSVNPGK; listed as Homo sapiens) [compound 96]"
recorded_measurement = "+ (>10% = +)"


Consider the substance 182 (QICLPAIYK; listed as Homo sapiens) [compound 182] and give its recorded Peptide exchange (MHC class I binding score, peptide exchange yield).
++++ (>75% = ++++)

Consider the substance 3 (LLYGNGPGYVLK; listed as Homo sapiens) [compound 3] and give its recorded Peptide exchange (MHC class I binding score, peptide exchange yield).
++++ (>75% = ++++)

Consider the substance 137 (TVYVAMCHKF; listed as Homo sapiens) [compound 137] and give its recorded Peptide exchange (MHC class I binding score, peptide exchange yield).
++++ (>75% = ++++)

Consider the substance 219 (ALERKFRQK; listed as Homo sapiens) [compound 219] and give its recorded Peptide exchange (MHC class I binding score, peptide exchange yield).
++++ (>75% = ++++)

Consider the substance 118 (SLRGSFPILY; listed as Homo sapiens) [compound 118] and give its recorded Peptide exchange (MHC class I binding score, peptide exchange yield).
+ (>10% = +)

Consider the substance 195 (KLQAKVLQY; listed as Homo sapiens) [compound 195] and give its recorded Peptide exchange (MHC class I binding score, peptide exchange yield).
++++ (>75% = ++++)

Consider the substance 111 (ATSPPASVR; listed as Homo sapiens) [compound 111] and give its recorded Peptide exchange (MHC class I binding score, peptide exchange yield).
++++ (>75% = ++++)

Consider the substance 62 (GIFPKIMPK; listed as Homo sapiens) [compound 62] and give its recorded Peptide exchange (MHC class I binding score, peptide exchange yield).
++++ (>75% = ++++)

Consider the substance 64 (SVLSRMLVR; listed as Homo sapiens) [compound 64] and give its recorded Peptide exchange (MHC class I binding score, peptide exchange yield).
++++ (>75% = ++++)

Consider the substance 128 (KIKKPLSYR; listed as Homo sapiens) [compound 128] and give its recorded Peptide exchange (MHC class I binding score, peptide exchange yield).
++++ (>75% = ++++)

Consider the substance 178 (RIYVYVKRK; listed as Homo sapiens) [compound 178] and give its recorded Peptide exchange (MHC class I binding score, peptide exchange yield).
+++ (>50 = +++)

Value source: patent US11872270B2
